- target: succinate dehydrogenase/complex II (SDH) (Rattus norvegicus, UniProt P21913+Q641Z9+Q6PCT8+Q920L2)
- Construct: freshly isolated muscle mitochondria were assayed; from tissue; host or cells: rat skeletal muscle mitochondria (Wistar, Harlan Laboratories)
- Sequence (Q920L2 35-656): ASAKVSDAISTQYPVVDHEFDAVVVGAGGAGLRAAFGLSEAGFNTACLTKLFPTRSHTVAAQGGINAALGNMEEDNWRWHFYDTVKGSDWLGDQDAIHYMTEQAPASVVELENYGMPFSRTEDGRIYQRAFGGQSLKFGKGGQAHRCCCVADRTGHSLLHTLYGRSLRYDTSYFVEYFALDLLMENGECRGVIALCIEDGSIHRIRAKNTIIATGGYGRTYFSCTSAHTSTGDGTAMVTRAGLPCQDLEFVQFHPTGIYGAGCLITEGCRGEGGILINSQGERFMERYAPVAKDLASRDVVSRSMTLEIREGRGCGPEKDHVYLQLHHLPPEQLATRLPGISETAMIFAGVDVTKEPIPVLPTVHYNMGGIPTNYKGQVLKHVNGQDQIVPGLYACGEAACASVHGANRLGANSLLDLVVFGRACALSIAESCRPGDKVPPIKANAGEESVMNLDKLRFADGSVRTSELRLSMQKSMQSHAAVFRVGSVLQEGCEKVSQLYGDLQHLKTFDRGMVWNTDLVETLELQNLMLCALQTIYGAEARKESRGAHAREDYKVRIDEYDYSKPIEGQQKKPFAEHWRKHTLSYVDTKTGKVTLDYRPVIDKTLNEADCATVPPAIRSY
- Sequence (P21913 31-282): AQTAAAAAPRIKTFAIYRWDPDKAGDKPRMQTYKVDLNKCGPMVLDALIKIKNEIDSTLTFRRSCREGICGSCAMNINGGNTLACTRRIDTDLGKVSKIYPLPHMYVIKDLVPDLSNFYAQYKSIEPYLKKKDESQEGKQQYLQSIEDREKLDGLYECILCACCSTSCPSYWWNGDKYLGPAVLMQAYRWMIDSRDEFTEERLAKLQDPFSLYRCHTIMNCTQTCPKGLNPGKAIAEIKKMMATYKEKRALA
- Sequence (Q641Z9 30-169 limits assumed): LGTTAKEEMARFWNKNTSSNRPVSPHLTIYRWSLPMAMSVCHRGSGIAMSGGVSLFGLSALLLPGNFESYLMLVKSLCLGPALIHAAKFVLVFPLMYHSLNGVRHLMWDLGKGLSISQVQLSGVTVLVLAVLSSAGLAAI
- Sequence (Q6PCT8 57-159): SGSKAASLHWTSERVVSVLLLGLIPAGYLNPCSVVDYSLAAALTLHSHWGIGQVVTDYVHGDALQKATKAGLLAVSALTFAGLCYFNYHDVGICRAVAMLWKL
- testDescription: High-throughput screen: ROS production from succinate dehydrogenase/complex II (SDH)
- Assay type: biochemical
- measurementParameters: Table 9; percent change in ROS from DMSO controls
Respond with Y for SDH values of 2 and above, N for values below.

Qu. Is SDH for Cl.OC12CCCCC1C(c1cccc(Cl)c1)NCC2 (stereo not drawn) at or above 2?
Ans. N

Qu. Is it the case that O=C(O)C1CCCCC1C(=O)NC1CCCCCCC1 (stereo not drawn) has SDH reaching or exceeding 2?
Ans. Y

Qu. Is reported SDH greater than or equal to 2 here: O=[N+]([O-])c1ccc(Oc2ccc(S(=O)(=O)Nc3ccc4c(c3)OCCO4)cc2)cc1
Ans. Y

Qu. Has CN(C)CCN(Cc1ccccc1)Cc1ccc(C(F)(F)F)cc1 a recorded SDH greater than or equal to 2?
Ans. N

Qu. Please check the record CCN(CC)CCN(CC)Cc1ccc(Cl)cc1Cl and state if its SDH is at or above 2.
Ans. N

Qu. Say whether CN(C)CCN(Cc1ccccc1)Cc1ccccc1Br shows SDH of 2 or more.
Ans. N

Qu. Is the recorded value of SDH equal to or greater than 2 for this molecule? Fc1ccc(SCCc2ccccn2)cc1
Ans. N

Qu. Confirm if SDH reported for the molecule O=C(O)CCC(=O)Nc1ccc(-c2nc3ccccc3o2)cc1 is 2 or above.
Ans. Y

Qu. Is SDH for COc1ccccc1/C=C/c1nc(O)nc(O)c1[N+](=O)[O-] at or above 2?
Ans. Y

###

Hi there, I'd appreciate the recorded inhibition for every entry that follows.
- target: glycerol-3-phosphate dehydrogenase (GPDH) (Rattus norvegicus, UniProt P35571)
- Construct: The activity of GPDH in intact mitochondria (0.3 mg/mL) was measured; from tissue; host or cells: rat skeletal muscle mitochondria (Wistar, Harlan Laboratories)
- Sequence (P35571 43-727): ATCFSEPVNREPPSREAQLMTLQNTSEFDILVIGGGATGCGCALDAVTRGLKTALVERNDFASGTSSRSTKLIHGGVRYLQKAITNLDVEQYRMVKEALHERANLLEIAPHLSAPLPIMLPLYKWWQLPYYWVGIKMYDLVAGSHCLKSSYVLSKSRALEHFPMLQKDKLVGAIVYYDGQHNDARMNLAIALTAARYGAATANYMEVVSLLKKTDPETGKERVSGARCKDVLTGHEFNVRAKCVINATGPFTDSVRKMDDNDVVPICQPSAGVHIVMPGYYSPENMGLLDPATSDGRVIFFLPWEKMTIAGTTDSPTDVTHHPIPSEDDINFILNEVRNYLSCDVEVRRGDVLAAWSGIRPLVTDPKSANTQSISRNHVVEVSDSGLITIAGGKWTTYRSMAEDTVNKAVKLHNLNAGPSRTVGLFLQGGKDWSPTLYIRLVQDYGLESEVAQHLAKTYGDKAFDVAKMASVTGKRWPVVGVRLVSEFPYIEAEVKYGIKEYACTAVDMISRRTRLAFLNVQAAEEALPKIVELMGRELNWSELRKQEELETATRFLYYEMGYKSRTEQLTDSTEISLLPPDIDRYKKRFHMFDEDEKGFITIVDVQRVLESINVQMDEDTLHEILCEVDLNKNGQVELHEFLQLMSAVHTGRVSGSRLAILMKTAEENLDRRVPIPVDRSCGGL
- testDescription: High-throughput screen: ROS production from glycerol-3-phosphate dehydrogenase (GPDH)
- Assay type: biochemical
- Set-up: dose or concentration left out as unconfirmed
- measurementParameters: Table 7; percent change in ROS from DMSO controls
// units = %; emit number, no label

Lab book: inhibition of COc1cccc(/C=C/C(=O)c2c(O)cc(C)oc2=O)c1O [Compound 17] noted as 3.6

Sample Cc1ccc(NS(=O)(=O)c2ccc(C3CCCCC3)cc2)cc1 [Compound 6] ; inhibition observed: 2.3

Sample O=S(=O)(Nc1ccc(Br)cc1)c1ccc(C2CCCCC2)cc1 [Compound 8] ; inhibition observed: 1.8

inhibition reported for this compound COC(=O)c1ccc(CN(CCc2ccccc2)Cc2ccccc2)cc1 [Compound 43] : -3.4

// O=C(COc1ccc(Cl)cc1Cl)Nc1ccc(F)cc1F [Compound 24] : inhibition value = 2

###

- Test system: ubiquinone binding site of complex I (IQ)
- testDescription: High-throughput screen: ROS production from ubiquinone binding site of complex I (IQ), isolated skeletal muscle mitochondria
- Type: biochemical, rat
- measurementParameters: Table 8; percent change in ROS from DMSO controls
reportedProperty: IQ
Form: value (number only, do not type unit).

ubiquinone binding site of complex I (IQ) IQ of COc1ccc(NS(=O)(=O)c2cccc(C(=O)Nc3ccc(C)cc3)c2)cc1 is −23.8

Case CC1=CC(C)C(C2OCC(CN3CCCCC3)O2)C(C)C1 (stereo not drawn) , ubiquinone binding site of complex I (IQ), IQ recorded as 0.1

Lab entry: ubiquinone binding site of complex I (IQ) assay, compound CN(C)CCN(Cc1ccccc1)Cc1ccc(C(F)(F)F)cc1 , IQ = −2.1

The compound CCCCN(Cc1ccccc1)Cc1cc(OC)c(OC)cc1[N+](=O)[O-] , tested on ubiquinone binding site of complex I (IQ), showed IQ of 0

The observed IQ for COc1cccc(CCNC2C3CC4CC(C3)CC2C4)c1 (stereo not drawn) when tested with ubiquinone binding site of complex I (IQ) stands at −0.8

IQ for ubiquinone binding site of complex I (IQ) with input Cc1ccccc1NS(=O)(=O)c1ccc(C2CCCCC2)cc1 equals −31.2
